target: hCRTH2 (Homo sapiens, UniProt Q9Y5Y4); construct: expressed in transfected cells; host or cells: HEK (human embryonic kidney) cells expressing hCRTH2; membrane preparation; test: Radioligand binding assay ([3H]PGD2 competition, HEK-hCRTH2 membranes); settings: [3H]PGD2 competition, Table B
Sequence (Q9Y5Y4 whole entry): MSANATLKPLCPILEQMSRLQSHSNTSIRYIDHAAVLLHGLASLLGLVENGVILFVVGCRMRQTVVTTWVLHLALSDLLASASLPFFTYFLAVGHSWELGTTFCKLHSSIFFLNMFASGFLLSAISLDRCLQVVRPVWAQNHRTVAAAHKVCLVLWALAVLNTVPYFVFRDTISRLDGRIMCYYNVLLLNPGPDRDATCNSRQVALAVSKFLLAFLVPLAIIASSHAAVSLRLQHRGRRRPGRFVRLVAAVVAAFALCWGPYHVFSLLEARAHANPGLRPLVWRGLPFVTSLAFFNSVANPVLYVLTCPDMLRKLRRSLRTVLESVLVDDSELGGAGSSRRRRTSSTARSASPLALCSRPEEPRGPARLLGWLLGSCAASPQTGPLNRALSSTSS
Below is a list of entries, each paired with its recorded Ki value.

Some compounds with known Ki results, for comparison:
O=C(O)CCCCc1nc2cc(C(=O)N3CCN(c4ccccc4C(F)(F)F)CC3)ccc2nc1-c1ccccc1 :: 2.1 to 20 nM
O=C(O)CCCCc1nc2cc(C(=O)N[C@@H]3CCCc4ccccc43)ccc2nc1-c1ccccc1 :: 0.1 to 2 nM
C[C@H](NC(=O)c1ccc2nc(-c3ccc(Cl)cc3)c(CCCCC(=O)O)nc2c1)c1ccc(F)c(F)c1 :: 0.1 to 2 nM
O=C(O)CCCCc1nc2cc(C(=O)NC3NC(=O)c4ccccc43)ccc2nc1-c1ccc(Cl)cc1 (stereo not drawn) :: 2.1 to 20 nM
C[C@@H](CCc1nc2cc(C(=O)N[C@@H]3CCCc4ccccc43)ccc2nc1-c1ccccc1)CC(=O)O :: 2.1 to 20 nM
CC(CCCc1nc2cc(C(=O)N[C@H](C)c3ccc(Cl)cc3)ccc2nc1-c1ccc(F)cc1)C(=O)O (stereo partly drawn) :: 2.1 to 20 nM
O=C(N[C@@H]1CCCc2cc(F)ccc21)c1ccc2nc(-c3ccc(F)cc3)c(CC[C@H]3C[C@@H]3C(=O)O)nc2c1 :: 2.1 to 20 nM
C[C@@H](NC(=O)c1ccc2nc(-c3ccccc3)c(CCCCC(=O)O)nc2c1)c1ccc(F)cn1 :: 2.1 to 20 nM

In: Give the value of Ki reported for the following: `C[C@@H](CCCc1nc2cc(C(=O)N[C@H](C)c3ccc(F)cc3)ccc2nc1-c1ccc(F)cc1)C(=O)O`
Out: 2.1 to 20 nM

In: # return recorded Ki for entry O=C(O)CCCCc1nc2cc(C(=O)N3CCCC3c3ccncc3)ccc2nc1-c1ccc(Cl)cc1 (stereo not drawn)
Out: 20.1 to 200 nM

In: Supply measured Ki of `O=C(O)CCCCc1nc2cc(C(=O)N3CCN(c4cccc(C(F)(F)F)c4)CC3)ccc2nc1-c1ccc(Cl)cc1` in your reply.
Out: 0.1 to 2 nM

In: Report Ki, nothing else, for this compound: `C[C@@H]1CN(c2ccc(F)cc2)CCN1C(=O)c1ccc2nc(-c3ccccc3)c(CCCCC(=O)O)nc2c1`
Out: 2.1 to 20 nM

In: Give reported Ki value for CC(CCCc1nc2cc(C(=O)N[C@@H](C)c3ccc(Cl)cc3)ccc2nc1-c1ccc(Cl)cc1)C(=O)O (stereo partly drawn)
Out: 2.1 to 20 nM

In: Return reported Ki. Input compound: `O=C(O)CCCCc1nc2cc(C(=O)N[C@H]3CCc4cc(F)ccc43)ccc2nc1-c1ccc(Cl)cc1`
Out: 0.1 to 2 nM

In: Provide Ki value for the following compound: `O=C(O)CCCCc1nc2cc(C(=O)N3CCC4(CC3)NC(=O)Cc3ccccc34)ccc2nc1-c1ccccc1`
Out: 2.1 to 20 nM

* * *

biological target: hCRTH2 (Homo sapiens); construct: expressed in transfected cells; host or cells: HEK (human embryonic kidney) cells expressing hCRTH2; membrane preparation; test: Radioligand binding assay ([3H]PGD2 competition, HEK-hCRTH2 membranes); details: [3H]PGD2 competition, Table B
assay.metric: Ki

Consider the worked cases shown below.
O=C(O)CCCCc1nc2cc(C(=O)NC3CC(=O)Nc4ccc(F)cc43)ccc2nc1-c1ccccc1 (stereo not shown) :: 2.1 to 20 nM
O=C(O)CCCCc1nc2cc(C(=O)N[C@H]3CCOc4cc(F)ccc43)ccc2nc1-c1ccc(Cl)cc1 :: 0.1 to 2 nM
O=C(O)CCCCc1nc2cc(C(=O)N3CCC(n4cccn4)CC3)ccc2nc1-c1ccc(Cl)cc1 :: 2.1 to 20 nM
C[C@H](NC(=O)c1ccc2nc(-c3ccc(Cl)cc3)c(CCCCC(=O)O)nc2c1)c1ccc(C#N)cc1 :: 2.1 to 20 nM
O=C(O)CCCCc1nc2cc(C(=O)N[C@@H]3CCOc4cc(Cl)ccc43)ccc2nc1-c1ccc(Cl)cc1 :: 2.1 to 20 nM

In: Enter Ki (test system hCRTH2 (Homo sapiens)) for `O=C(O)CCCCc1nc2cc(C(=O)N3CCN(c4cccc(C(F)(F)F)c4)CC3)ccc2nc1-c1ccccc1`
Out: 2.1 to 20 nM

In: Report Ki on hCRTH2 (Homo sapiens) for this entry: `O=C(O)CCCCc1nc2cc(C(=O)N3CCN(c4ncccn4)CC3)ccc2nc1-c1ccc(Cl)cc1`
Out: 2.1 to 20 nM

In: Answer with Ki of `C[C@H](CCc1nc2cc(C(=O)N3CC[C@@H](c4ccccc4)C3)ccc2nc1-c1ccccc1)CC(=O)O` measured for hCRTH2 (Homo sapiens).
Out: 201 to 700 nM

In: State recorded Ki with hCRTH2 (Homo sapiens), entry CC(CCCc1nc2cc(C(=O)N[C@@H]3CCCc4ccccc43)ccc2nc1-c1ccc(F)cc1)C(=O)O (stereo partly shown) , no comment.
Out: 2.1 to 20 nM

In: Tell me Ki of C[C@H](NC(=O)c1ccc2nc(-c3ccc(Cl)cc3)c(CC3CCC(C(=O)O)C3)nc2c1)c1ccccc1 (stereo partly shown) when tested on hCRTH2 (Homo sapiens).
Out: 2.1 to 20 nM
